Experiment: Chemical stability (hydrolysis half-life) in phosphate-buffered saline, RP-18 HPLC
Format: physicochemical
Conditions: phosphate buffer saline (PBS, pH 7.3); read-out: Half-lives PBS (converted)
Assign half-life to each entry below.

Exam item: Which half-life value is on record for CCCCCCCCCCCCCCCCCCP(=O)(OCCCC)OP(=O)(O)OC[C@H]1O[C@@H](n2ccc(=O)[nH]c2=O)C[C@@H]1F (stereo partly drawn) [No 24] ?
Marked response: > 83.3 days

Exam item: I am curious: what half-life value has been reported for CCCCCCCCCCCCCCCCCCOP(=O)(OCC(CC)CCCC)OP(=O)(O)OC[C@@H]1C=C[C@H](n2cc(C)c(=O)[nH]c2=O)O1 (stereo partly drawn) [No 17] ?
Marked response: > 41.7 days

Exam item: Item under review: CCCCCCCCCCCCCCCCCCP(=O)(OCCCC)OP(=O)(O)OC[C@H]1O[C@@H](n2cc(C)c(=O)[nH]c2=O)C[C@@H]1N=[N+]=[N-] (stereo partly drawn) [No 20] . Reported half-life?
Marked response: > 83.3 days

Exam item: # input compound: CCCCCCCCCCCCCCCCCCOP(=O)(OCCCC)OP(=O)(O)OC[C@@H]1C=C[C@H](n2cc(C)c(=O)[nH]c2=O)O1 (stereo partly drawn) [No 16] ; wanted: its half-life
Marked response: > 41.7 days

Exam item: Return reported half-life; argument: CCCCCCCCCCCCCCCCCCOP(=O)(OCCCC)OP(=O)(O)OC[C@H]1O[C@@H](n2cc(C)c(=O)[nH]c2=O)C[C@@H]1F (stereo partly drawn) [No 21]
Marked response: > 41.7 days

Exam item: I am curious: what half-life value has been reported for CCCCCCCCCCCCCCCCCCOP(=O)(OCCCC)OP(=O)(O)OC[C@H]1O[C@@H](n2ccc(=O)[nH]c2=O)C[C@@H]1F (stereo partly drawn) [No 23] ?
Marked response: 33.2 days

* * *

Test: Chemical stability (hydrolysis half-life) in phosphate-buffered saline, RP-18 HPLC
Format: physicochemical
Conditions: phosphate buffer saline (PBS, pH 7.3); read-out: Half-lives PBS (converted)
assay_metric: half-life (days)
Reply with just the number (in days).

Exam item: // returns reported half-life for input CCCCCCCCCCCCCCCCCCOP(=O)(OCCCC)OP(=O)(O)OC[C@H]1O[C@@H](n2cc(C)c(=O)[nH]c2=O)C[C@@H]1N=[N+]=[N-] (some centres unmarked) [No 19]
Marked response: 42.8

Exam item: What half-life value was documented for this molecule, CCCCCCCCCCCCCCCCCCOP(=O)(OCCCC)OP(=O)(O)OC[C@@H]1C=C[C@H](n2cnc3c(NC4CC4)nc(N)nc32)C1 (some centres unmarked) [No 25] ?
Marked response: 2.33

* * *

System: HIV-2 (ROD)
Test: Inhibition of HIV-2 replication in wild-type CEM/0 cell cultures
Format: cell-based
Details: Human immunodeficiency virus 2, CCRF-CEM; CD4+ T-lymphocytes (CEM/0); mean ±SD of n=2-3; read-out: Antiviral activity EC50 HIV-2 (ROD)
assay_metric: EC50 (µM)
I only need the number, in µM, no unit after it.

Exam item: Tell me the measured EC50 of Nc1nc(NC2CC2)c2ncn([C@H]3C=C[C@@H](CO)C3)c2n1 [ABC, abacavir, reference compound] , please.
Marked response: 3.51
